Assign pKd to each entry below.
# EXPERIMENTAL SYSTEM: T1, TIAM2, Q8IVF5
# T1 sequence (Q8IVF5 885-986, limits assumed, looked up): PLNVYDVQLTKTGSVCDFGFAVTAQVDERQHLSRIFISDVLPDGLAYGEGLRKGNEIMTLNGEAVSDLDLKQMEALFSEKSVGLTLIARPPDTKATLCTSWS
# ASSAY SUMMARY: holdup assay
# Parameters: key: below the threshold = too weak to quantify, mostly under pKd 3.1 to 4
# CONDITION CONTEXT: plain residues with an end cap or a label only (N-terminal biotin on a linker: ado-ado)
Numbers only.

Give pKd for all binders that follow.
1. SNAGNTATKA [NOSTRIN, Q8IVI9]
2. TASPAKETSF [SLC2A7, Q6PXP3]
3. HLRARKSEWV [GJD4, Q96KN9]
4. QKNRKAQEDL [CES3, Q6UWW8]
5. KKMPSIESDV [GRIN2A, Q12879]

[4.11, 3.63, 4.1, 4.08, 3.96]

Kindly give each listed record's pKd.
1. CLREWCDAFL [BANF1, O75531]
2. VNKSKLLTDV [KCNA1, Q09470]

4.05
3.95
